- System: Dengue virus
- protocol: Inhibition of Dengue virus NS2B-NS3 protease expressed in Escherichia coli BL21 lambda (DE3) using Abz-NleKRRS-3-(NO2)Y as substrate at 50 uM preincubated for 15 mins before substrate addition measured up to 15 mins by spectrofluorimetry
Active and inactive are the calls of the source. The rule behind the calls is not given here.
assay_endpoint: inhibition

* N#C/C(C(N)=O)=C1\CCc2ccccc21 | 23.2%
* C/C(=C(\C#N)C(N)=O)c1ccccc1 | 9%
* N#C/C(=C\c1ccc(C(=O)N2CCCCC2)cc1)C(N)=O | 22.3%
* CN(C)c1ccc(/C=C(\C#N)C(=O)NCc2ccccn2)cc1 | 25.3%
* COc1cc(/C=C(\C#N)C(N)=O)ccc1O | 43.2%
* N#C/C(=C\c1cccnc1)C(N)=O | inactive
* N#C/C(=C\c1ccc(Br)cc1)C(N)=O | 11.6%
* N#C/C(=C\c1ccc(O)cc1)C(=O)NCC1CCCO1 (configuration not stated) | 46.4%
* CCN(CC)C(=O)/C(C#N)=C/c1cc(O)c(O)c([N+](=O)[O-])c1 | 21%
* N#C/C(=C\c1cccs1)C(N)=O | 28.4%
* CC(C)/C(=C(\C#N)C(N)=O)c1ccccc1 | inactive
* COc1ccc(/C=C(\C#N)C(=O)N[C@@H](CO)C(=O)NC2CC2)cc1 | 23%
* N#C/C(=C\c1ccc(Br)s1)C(=O)NC1CC1 | inactive
* N#C/C(=C\c1ccc(C#N)cc1)C(N)=O | 13.3%
* CN1CCN(c2ccc(/C=C(\C#N)C(=O)NC3CC3)cc2)CC1 | 37.4%
* N#CC(Cc1c[nH]c2ccccc12)C(N)=O (configuration not stated) | inactive
* N#C/C(=C\c1ccc(C(=O)N2CCOCC2)cc1)C(=O)NC1CC1 | 22.9%
* N#C/C(=C\c1ccc(N2CCCC2)cc1)C(N)=O | 24.3%
* CN(C)c1ccc(/C=C(\C#N)C(=O)N2CCOCC2)cc1 | 43.3%
* N#C/C(=C\c1ccc(C(=O)O)cc1)C(=O)NC1CC1 | 20%
* CC(C)c1ccc(/C=C(\C#N)C(N)=O)cc1 | 23%
* N#C/C(=C\c1cc(O)c(O)c([N+](=O)[O-])c1)C(N)=O | 24.3%
* N#C/C(=C\c1cccc(C(=O)NC2CC2)c1)C(=O)NC1CC1 | 10.8%
* N#C/C(=C\c1ccc(Br)s1)C(N)=O | 20.2%
* COc1cccc(/C=C(\C#N)C(N)=O)c1 | 16.3%
* CN(C)c1ccc(C=C(C#N)C#N)cc1 | 8.7%
* CN1CCN(C(=O)/C(C#N)=C/c2ccc(O)cc2)CC1 | 35.4%
